experiment: Oral bioavailability, AUC, half-life, plasma, brain and liver concentration in mice at 2 mg/kg
Format: in vivo
conditionSet: mouse, plasma, 2 mg/kg, oral
Procedure: HZ10126 and other test compounds were each administered to mice at a dose of 2 mg/kg, and the bioavailability, AUC, plasma concentration, level of brain penetration (i.e. brain concentration) and liver concentration after the oral administration were measured and shown in Table 1. The measurement methods are well known to a person skilled in the art.
recordedMetric: log10 of AUC(0-t) (log10 of the value in ng·h/mL)
Recorded AUC(0-t) (log10, ng·h/mL)

Exam item: Given CCOC(=O)c1ccc(CCn2ncc3c2nc(N)n2nc(-c4ccco4)nc32)cc1 , state its recorded log10 of AUC(0-t).
Marked response: 2.37

Exam item: Which log10 of AUC(0-t) reading was recorded for the compound Nc1nc2c(cnn2CCN2CCN(c3ccc(C(=O)O)cc3)CC2)c2nc(-c3ccco3)nn12 ?
Marked response: 1.97

Exam item: Suppose we examine the compound Nc1nc2c(cnn2CCc2ccc(C(=O)O)cc2)c2nc(-c3ccco3)nn12 ; what log10 of AUC(0-t) value has been reported?
Marked response: 2.57

Exam item: Name the recorded log10 of AUC(0-t) for COCCOc1ccc(N2CCN(CCn3ncc4c3nc(N)n3nc(-c5ccco5)nc43)CC2)cc1 [Preladenant, reference compound] .
Marked response: 2.45

Exam item: Form field: reported log10 of AUC(0-t) of Nc1nc2c(cnn2CCc2ccc(OCC(=O)O)cc2)c2nc(-c3ccco3)nn12
Marked response: 0.87

----------
Exercise: state measured bioavailability for each of the compounds provided.
experiment: Oral bioavailability, AUC, half-life, plasma, brain and liver concentration in mice at 2 mg/kg
Format: in vivo
conditionSet: mouse, plasma, 2 mg/kg, oral, read-out: Absolute bioavailability (oral)
Please give a number only; it is taken to be in %.

Exam item: Form field: reported bioavailability of Nc1nc2c(cnn2CCc2ccc(C(=O)O)cc2)c2nc(-c3ccco3)nn12
Marked response: 13.4

Exam item: Please give the measured bioavailability for this compound: Nc1nc2c(cnn2CCc2ccc(CO)cc2)c2nc(-c3ccco3)nn12
Marked response: 0

Exam item: Sample Nc1nc2c(cnn2CCc2ccc(OCC(=O)O)cc2)c2nc(-c3ccco3)nn12 — what was its bioavailability?
Marked response: 0.73
